experiment: yeast display, Sf9 membrane polyspecificity reagent, FACS + sequencing; frameworks hold sequencing errors

chain.sequence | polyreactivity (PSR sort gate)
QVQHVESGGGLDQAGGSLRLSCAASGITFEGYAMGWYRQAPGKERELVAAIRSSGTSTYYADSVKGRFTISRDNAKNTFYLQMISLKPEETAVYYCNRARSSYSYDYWGQGTQVTVSS | low polyreactivity
QVQLVESGGGLVQAGGSLRLSCAASGFTFPRNAMGCYRQAPGKERELVAGISKSGGSTYYADSVKGRFTISRDNAKNTVYLQMNSLKPEDTAVYYCAKAVNSPRKYQLGNGYWGQGTQVTVSS | high polyreactivity
QVQLVESGGGLVQAGGSLRLICAASGRILDNYAMGWYRQAPGKERELVAAISASGASTYYADSVKGRFTISRDNAKNTVYLQMNSLKPEDTAVYYCNAAARYRWQYDYSLYEYGHWGQGTQVTVSS | high polyreactivity
QVQLQESDGGLVQAGGSLRLSCAASGNIFPTDRMGRYRQAPAKVLEFVATISHGGSTNYADSVKGRFTISRDNATNTVYLQMNSLKPEDTAVYYCAVWSLGRCRHYYWGQGTHVTVSS | low polyreactivity
QVQLVESGGGLVQAGGSLRLSCAASGSIFYHYAMGWYRQAPGKERELVAAISQSGGGTYYADSVKGRFTISRDNAKNTVYLQMNSLKPEDTAVYYCNRLSKQKQEFDYWGQGTQVTVSS | high polyreactivity
